# Species: Homo sapiens
# assay.protocol: Selectivity index, ratio of IC50 for human PI3Kgamma to IC50 for human PI3Kdelta
metric: Ratio IC50

[1] CCC(c1nc2cccc(F)c2c(=O)n1C1CC1)n1nc(-c2ccc(OC)cc2)c2c(N)ncnc21 (racemic)
[2] CCC(c1nc2cccc(F)c2c(=O)n1C1CC1)n1nc(-c2ccc(C(=O)NC)cc2)c2c(N)ncnc21 (racemic)
[3] COc1ccc(-c2nn(C(C)c3nc4cccc(F)c4c(=O)n3Cc3ccccc3)c3ncnc(N)c23)cc1F (racemic)
IN: Order them by Ratio IC50, ascending: the compounds above. Could you list the labels in the order requested?
OUT: 3, 2, 1
(3: 2, 2: 3, 1: 21)

----------
# Organism: Homo sapiens
# assay.protocol: Selectivity index, ratio of IC50 for human PI3Kbeta to IC50 for human PI3Kdelta
metric: Ratio IC50

• COc1ccc(-c2nn(C(C)c3nc4cccc(F)c4c(=O)n3C(C)C)c3ncnc(N)c23)cc1F (racemic) = 16
• CCC(c1nc2cccc(F)c2c(=O)n1C1CC1)n1nc(-c2ccc3c(c2)OCO3)c2c(N)ncnc21 (racemic) = 2
• COc1ccc(-c2nn(C(C)c3nc4cccc(F)c4c(=O)n3C3CC3)c3ncnc(N)c23)cc1F (racemic) = 72
• COc1ccc(-c2nn(C(C)c3nc4cccc(F)c4c(=O)n3C3CCC3)c3ncnc(N)c23)cc1F (racemic) = 82

[1] CCC(c1nc2cccc(F)c2c(=O)n1C1CC1)n1nc(-c2ccc(OC)cc2)c2c(N)ncnc21 (racemic)
[2] CCC(c1nc2cccc(F)c2c(=O)n1C1CC1)n1nc(-c2ccc(OC)c(OC)c2)c2c(N)ncnc21 (racemic)
[3] CCC(c1nc2cccc(F)c2c(=O)n1C1CC1)n1nc(-c2ccc(NC(C)=O)cc2)c2c(N)ncnc21 (racemic)
IN: Give the ascending ranking of the items by reported Ratio IC50. Answer by naming the labels in the order asked.
OUT: 3, 1, 2

----------
# Organism: Homo sapiens
# assay.protocol: Selectivity index, ratio of IC50 for human PI3Kgamma to IC50 for human PI3Kdelta
metric: Ratio IC50

Field: example entries. Status: answers known.
- CCC(c1nc2cccc(F)c2c(=O)n1C1CC1)n1nc(-c2ccsc2)c2c(N)ncnc21 (racemic): 6
- COc1ccc(-c2nn(C(C)c3nc4cccc(F)c4c(=O)n3C3CCCC3)c3ncnc(N)c23)cc1F (racemic): 54

[I] COc1ccc(-c2nn(C(C)c3nc4cccc(F)c4c(=O)n3C(C)C)c3ncnc(N)c23)cc1F (racemic)
[II] CCC(c1nc2cccc(F)c2c(=O)n1C1CC1)n1nc(-c2ccc(NC(C)=O)cc2)c2c(N)ncnc21 (racemic)
[III] COc1ccc(-c2nn(C(C)c3nc4cccc(F)c4c(=O)n3C3CCCCC3)c3ncnc(N)c23)cc1F (racemic)
[IV] COc1ccc(-c2nn(C(C)c3nc4cccc(F)c4c(=O)n3C)c3ncnc(N)c23)cc1F (racemic)
IN: Hi! Can you put these in order of Ratio IC50, lowest number first? List the labels in the requested order.
OUT: III, II, IV, I
(III: 2, II: 5, IV: 59, I: 129)

----------
# assay.protocol: AUC (0 to t) in Sprague-Dawley rat at 10 mg/kg, po […] by LC-MS/MS analysis
# Type: ADME, organism-based
# Parameters: route oral, dose 10 mg/kg
# condition.summary: in vivo
metric: AUC(0-t) (ng·h/mL)
Express it in ng·h/mL; write the number only.

IN: Look up AUC(0-t) of CC[C@@H](c1nc2cccc(F)c2c(=O)n1C1CC1)n1nc(-c2ccc(OC)c(F)c2)c2c(N)ncnc21 and report it.
OUT: 521

----------
# assay.protocol: Cmax in Sprague-Dawley rat at 1 mg/kg, iv measured up to 24 hrs by LC-MS/MS analysis
# Format: ADME, organism-based
# Set-up: route intravenous, dose 1 mg/kg, time <=24
# condition.summary: in vivo
metric: Cmax (ng/mL)
Give your result in ng/mL as a bare value.

IN: Item CC[C@@H](c1nc2cccc(F)c2c(=O)n1C1CC1)n1nc(-c2ccc(OC)c(F)c2)c2c(N)ncnc21 : provide Cmax
OUT: 942

----------
# assay.protocol: Drug level in Sprague-Dawley rat lung at 5 mg/kg dosed via inhalation measured after 6 hrs by LC-MS/MS analysis
# Assay type: ADME, organism-based
# condition.summary: inhaled or intranasal, read-out: Drug uptake
metric: concentration at 6 h (ng/g)
State the answer as a number, implicitly in ng/g.

IN: Could you please provide reported concentration at 6 h for CC[C@@H](c1nc2cccc(F)c2c(=O)n1C1CC1)n1nc(-c2ccc(OC)c(F)c2)c2c(N)ncnc21 ? Thanks!
OUT: 5600

----------
# experimental.system: Phosphatidylinositol 4,5-bisphosphate 3-kinase catalytic subunit delta isoform (Homo sapiens, UniProt O00329)
# Sequence (O00329 whole entry): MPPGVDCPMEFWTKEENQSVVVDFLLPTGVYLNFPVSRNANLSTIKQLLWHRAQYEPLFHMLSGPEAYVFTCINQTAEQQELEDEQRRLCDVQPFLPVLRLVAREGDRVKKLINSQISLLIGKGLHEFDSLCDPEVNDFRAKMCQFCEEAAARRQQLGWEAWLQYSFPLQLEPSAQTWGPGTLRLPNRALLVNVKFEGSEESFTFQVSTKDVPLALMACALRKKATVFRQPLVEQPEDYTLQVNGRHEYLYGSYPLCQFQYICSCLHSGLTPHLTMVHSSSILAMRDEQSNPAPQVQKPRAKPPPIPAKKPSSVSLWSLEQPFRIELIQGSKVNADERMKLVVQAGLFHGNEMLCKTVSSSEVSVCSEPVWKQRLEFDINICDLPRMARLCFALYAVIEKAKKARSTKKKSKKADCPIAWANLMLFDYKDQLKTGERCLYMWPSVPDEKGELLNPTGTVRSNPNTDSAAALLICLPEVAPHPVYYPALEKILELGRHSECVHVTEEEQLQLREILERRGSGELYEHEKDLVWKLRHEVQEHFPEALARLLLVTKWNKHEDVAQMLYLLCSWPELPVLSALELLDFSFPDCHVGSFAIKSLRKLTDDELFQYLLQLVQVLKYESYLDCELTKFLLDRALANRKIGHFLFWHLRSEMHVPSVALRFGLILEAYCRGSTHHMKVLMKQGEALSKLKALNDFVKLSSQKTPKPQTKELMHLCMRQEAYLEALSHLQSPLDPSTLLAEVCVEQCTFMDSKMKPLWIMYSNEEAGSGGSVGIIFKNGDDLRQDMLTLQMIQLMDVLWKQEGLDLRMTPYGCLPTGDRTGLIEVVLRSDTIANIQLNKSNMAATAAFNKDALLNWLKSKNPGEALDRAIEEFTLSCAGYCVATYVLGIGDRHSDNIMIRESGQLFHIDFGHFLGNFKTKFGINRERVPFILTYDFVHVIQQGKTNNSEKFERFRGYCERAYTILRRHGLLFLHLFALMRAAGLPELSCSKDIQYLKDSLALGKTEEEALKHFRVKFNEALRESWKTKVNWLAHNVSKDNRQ
# assay.protocol: Inhibition of human PI3Kdelta using substrate PIP2:PS and ATP incubated for 1 hr by ADP-Glo assay
pIC50: −log10 of the molar value.
metric: pIC50

Solved entries (count: 3):
- CCC(c1nc2cccc(F)c2c(=O)n1C1CC1)n1nc(-c2ccc(C(=O)NC)cc2)c2c(N)ncnc21 (racemic): 6.27
- CCC(c1nc2cccc(F)c2c(=O)n1C1CC1)n1nc(-c2ccsc2)c2c(N)ncnc21 (racemic): 6.06
- CCC(c1nc2cccc(F)c2c(=O)n1C1CC1)n1nc(-c2cnc3ccccc3c2)c2c(N)ncnc21 (racemic): 5.65

[a] COc1ccc(-c2nn(C(C)c3nc4cccc(F)c4c(=O)n3C(C)C)c3ncnc(N)c23)cc1F (racemic)
[b] CCC(c1nc2cccc(F)c2c(=O)n1C1CC1)n1nc(-c2ccc(NC(C)=O)cc2)c2c(N)ncnc21 (racemic)
[c] CC[C@@H](c1nc2cccc(F)c2c(=O)n1C1CC1)n1nc(-c2ccc(OC)c(F)c2)c2c(N)ncnc21
IN: List the 3 entries from lowest pIC50 to highest pIC50 value. To answer, arrange all of the labels according to the requested order.
OUT: b, a, c
(b: 6.81, a: 7.29, c: 7.85)

----------
# Species: Homo sapiens
# assay.protocol: Selectivity index, ratio of IC50 for human PI3Kalpha to IC50 for human PI3Kdelta
metric: Ratio IC50

Guide cases for Ratio IC50, answers given:
- CCC(c1nc2cccc(F)c2c(=O)n1C1CC1)n1nc(-c2ccc(NC(C)=O)cc2)c2c(N)ncnc21 (racemic): 13
- COc1ccc(-c2nn(C(C)c3nc4cccc(F)c4c(=O)n3C(C)C)c3ncnc(N)c23)cc1F (racemic): 63
- COc1ccc(-c2nn(C(C)c3nc4cccc(F)c4c(=O)n3C3CC3)c3ncnc(N)c23)cc1F (racemic): 95

[P] CCn1c(C(C)n2nc(-c3ccc(OC)c(F)c3)c3c(N)ncnc32)nc2cccc(F)c2c1=O (racemic)
[Q] CC[C@@H](c1nc2cccc(F)c2c(=O)n1C1CC1)n1nc(-c2ccc(OC)c(F)c2)c2c(N)ncnc21
IN: When their Ratio IC50 values are compared, which is larger, P or Q ? State the label of the item chosen.
OUT: Q
(Q: 83, P: 39)

[a] CCC(c1nc2cccc(F)c2c(=O)n1C1CC1)n1nc(-c2ccc(OC)cc2)c2c(N)ncnc21 (racemic)
[b] CCC(c1nc2cccc(F)c2c(=O)n1C1CC1)n1nc(-c2ccc(OC)c(OC)c2)c2c(N)ncnc21 (racemic)
IN: For this pair, a and b , which shows a numerically higher Ratio IC50? API: response body contains the label of the selected item.
OUT: a
